Give protection from cytokine-induced ATP loss for every item shown.
# TEST METHOD NOTES: preservation of ATP in cytokine-treated beta cells – cell-based, ATP luminescence, single point, primary screen (AID 488910)
# TEST PARAMETERS: INS-1E cytokine-induced death, 48 h, at 10 µM, stronger effect = higher value, normalised: neutral wells 0, positive control 100
The whole screen tested about 20,000 compounds, of which about 25 (0.1%) were called active. The sample as a whole holds a higher share of actives than the screen did.
State just the number; it will be interpreted in %.

Request: Need protection from cytokine-induced ATP loss of "COc1ccc(NC(=O)N(C)C[C@H]2Oc3ccc(NC(=O)Cc4cn(C)c5ccccc45)cc3CC(=O)N([C@@H](C)CO)C[C@H]2C)cc1" , thanks.
Result: 13.3

Request: Need protection from cytokine-induced ATP loss of "CC(C)NC(=O)N(C)C[C@H]1Oc2c(NC(=O)C3CCCCC3)cccc2C(=O)N([C@@H](C)CO)C[C@H]1C" , thanks.
Result: 10.6

Request: Need protection from cytokine-induced ATP loss of "COc1ccc(NC(=O)Nc2ccc3c(c2)C(=O)N([C@H](C)CO)C[C@H](C)[C@@H](CN(C)C(=O)NC2CCCCC2)OCCCC[C@@H](C)O3)cc1" , thanks.
Result: 14.1

Request: Need protection from cytokine-induced ATP loss of "C[C@@H]1CN([C@@H](C)CO)C(=O)c2cccc(NC(=O)Nc3ccccc3)c2O[C@H]1CN(C)Cc1ccccc1" , thanks.
Result: -11.7
